biological target: NOX2 (Homo sapiens, UniProt P04839); construct: isolated plasma membranes from human neutrophils as a source for Nox2-p22phox; from tissue; host or cells: Plasma membranes of human neutrophils (Nox2-p22phox); cytosolic factors recombinant from E. coli; assay: Nox2 cell-free assay (LO12 luminescence); assay type: biochemical; conditions: Nox2 cell-free system; value in parentheses; read-out: % inhibition (maximum inhibition achieved at a very high concentration of the compound)
READOUT: Emax (%)
Give the value, in units of %, as a plain number.

Known results for molecules:
O=c1c2ccccc2[nH]c(=S)n1CCN1CCCCC1 [TG6-53]	90
CN(C)CCCn1c(SCC(=O)Nc2cc(-c3ccc(F)cc3)n[nH]2)nc2ccccc2c1=O [TG6-20]	90

Shift focus to the following entry.
Q: Report Emax from NOX2 (Homo sapiens, UniProt P04839) testing of CC(Sc1nc2ccccc2c(=O)n1CCCO)C(=O)Nc1nc(-c2ccccc2)cs1 (stereo not drawn) [Sample T5826778]
A: 90

* * *

Target: NOX2 (Homo sapiens, UniProt P04839)
Construct: isolated plasma membranes from human neutrophils as a source for Nox2-p22phox; cytosolic factors recombinant from E. coli
Sequence (P04839 2-570 limits assumed): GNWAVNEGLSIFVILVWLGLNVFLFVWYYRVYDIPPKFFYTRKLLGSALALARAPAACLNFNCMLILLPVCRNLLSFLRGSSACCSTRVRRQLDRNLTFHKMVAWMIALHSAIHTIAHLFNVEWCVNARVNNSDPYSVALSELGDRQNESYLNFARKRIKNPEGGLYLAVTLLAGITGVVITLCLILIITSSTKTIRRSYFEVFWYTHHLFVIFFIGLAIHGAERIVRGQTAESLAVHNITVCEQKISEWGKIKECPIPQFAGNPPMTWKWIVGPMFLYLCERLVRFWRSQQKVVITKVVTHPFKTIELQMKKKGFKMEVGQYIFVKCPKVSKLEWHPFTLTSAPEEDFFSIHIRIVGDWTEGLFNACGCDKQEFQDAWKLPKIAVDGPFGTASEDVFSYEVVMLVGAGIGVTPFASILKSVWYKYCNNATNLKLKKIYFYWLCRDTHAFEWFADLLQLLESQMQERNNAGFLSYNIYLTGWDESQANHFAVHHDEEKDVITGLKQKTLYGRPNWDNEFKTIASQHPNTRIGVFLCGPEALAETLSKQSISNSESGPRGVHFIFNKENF
Sequence (P13498 2-195 partner limits assumed): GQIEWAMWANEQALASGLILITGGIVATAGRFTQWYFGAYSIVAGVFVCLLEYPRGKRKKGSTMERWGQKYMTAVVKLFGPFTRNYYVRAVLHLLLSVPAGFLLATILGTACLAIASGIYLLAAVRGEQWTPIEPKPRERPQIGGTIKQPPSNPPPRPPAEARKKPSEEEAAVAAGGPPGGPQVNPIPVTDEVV
Experiment: Nox2 cell-free assay (LO12 luminescence)
Conditions: Nox2 cell-free system; read-out: NOX2 IC50 (concentration giving half-maximal inhibition)
pIC50: −log10 of the molar value.
READOUT: pIC50

Q: Item CCN(CC)CCCn1c(SCC(=O)Nc2nc(-c3cccc(C(F)(F)F)c3)cs2)nc2ccccc2c1=O [AS165b] : provide pIC50
A: < 5.00
